Hey, just so you know, these numbers are from patent US8895526B2.

# System: tet-on competent MLL/AF9+Nras AML
# Protocol summary: Pooled negative selection RNAi screening (deep sequencing)
# Format: cell-based, mouse
# Assay context: deep sequencing reads, On Dox compared to T0
Quick reference: Fold depletion in AML of the listed items.
Lab book: enter the figure in Fold, no units written.

Consider the reported Fold depletion in AML for these molecules:
# Fold depletion in AML of Mn1.2545: neutral control shRNA, SEQ ID NO: 206 (nucleic acid) TGCTGTTGACAGTGAGCGCCAGCGCGGTTGCAGCCGGTAATAGTGAAGCCACAGATGTATTACCGGCTGCAACCGCGCTGTTGCCTACTGCCTCGGA = 0.81

# Fold depletion in AML of Renilla.713: neutral control shRNA, SEQ ID NO: 213 (nucleic acid) TGCTGTTGACAGTGAGCGCAGGAATTATAATGCTTATCTATAGTGAAGCCACAGATGTATAGATAAGCATTATAATTCCTATGCCTACTGCCTCGGA = 1.29

# Fold depletion in AML of Pitpnm1.561: shRNA, SEQ ID NO: 165 (nucleic acid) TGCTGTTGACAGTGAGCGCCAGGATGCTTATCAAGGAGTATAGTGAAGCCACAGATGTATACTCCTTGATAAGCATCCTGATGCCTACTGCCTCGGA = 60.72

As a next step, examine the molecule that follows.
# Fold depletion in AML of Smpd2.592: shRNA, SEQ ID NO: 183 (nucleic acid) TGCTGTTGACAGTGAGCGACAGCATGTCTACAGTCTGAATTAGTGAAGCCACAGATGTAATTCAGACTGTAGACATGCTGGTGCCTACTGCCTCGGA = 8.63
